target.or.test.system: Perilipin-5 (Homo sapiens) + 1-acylglycerol-3-phosphate O-acyltransferase ABHD5 (Homo sapiens) (UniProt Q00G26+Q8WTS1)
Sequence (Q00G26 whole entry, looked up): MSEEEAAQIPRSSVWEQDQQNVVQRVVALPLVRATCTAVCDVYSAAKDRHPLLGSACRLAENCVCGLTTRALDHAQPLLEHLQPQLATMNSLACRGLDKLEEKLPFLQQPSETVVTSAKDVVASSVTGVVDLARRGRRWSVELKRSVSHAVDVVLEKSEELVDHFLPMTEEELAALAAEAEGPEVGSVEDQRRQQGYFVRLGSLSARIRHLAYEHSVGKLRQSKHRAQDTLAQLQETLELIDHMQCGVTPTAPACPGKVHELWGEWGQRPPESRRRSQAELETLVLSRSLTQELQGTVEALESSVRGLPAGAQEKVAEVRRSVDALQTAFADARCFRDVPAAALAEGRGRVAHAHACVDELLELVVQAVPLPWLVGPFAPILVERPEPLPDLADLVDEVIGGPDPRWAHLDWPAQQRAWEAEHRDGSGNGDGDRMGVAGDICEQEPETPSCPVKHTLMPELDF
Sequence (Q8WTS1 whole entry, looked up): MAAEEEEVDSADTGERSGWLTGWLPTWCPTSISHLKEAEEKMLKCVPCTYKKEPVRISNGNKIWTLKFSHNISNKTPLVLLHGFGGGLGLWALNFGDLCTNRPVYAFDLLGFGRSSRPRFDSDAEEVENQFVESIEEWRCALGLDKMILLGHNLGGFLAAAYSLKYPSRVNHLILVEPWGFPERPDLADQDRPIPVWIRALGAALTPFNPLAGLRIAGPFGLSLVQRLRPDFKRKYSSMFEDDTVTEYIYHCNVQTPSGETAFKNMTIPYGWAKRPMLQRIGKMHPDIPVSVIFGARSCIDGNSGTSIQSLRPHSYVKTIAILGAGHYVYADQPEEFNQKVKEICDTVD
assay.summary: ABHD5-PLIN5 interaction inhibitors, dose response, biochemical, luminescence (AID 651677)
Active and inactive are the calls of the source. No rule for the calls is given here.
Collected IC50 values appear next to each entry.

Consider the following illustrative entries.
Problem: Query IC50 for "CCOC(=O)c1c(NC(=O)/C=C/C(=O)O)sc(C)c1-c1ccc(C(C)(C)C)cc1"
Result: 6740 nM

Problem: Query IC50 for CCCCC(=O)NC(c1cccc([N+](=O)[O-])c1)c1ccc2cccnc2c1O (centres undefined)
Result: > 39800 nM (inactive)

Further cases:
Problem: Query IC50 for "CN1C(=O)/C(=C/C=C/c2ccco2)C(=O)NC1=S"
Result: 2960 nM

Problem: Query IC50 for "CSc1nnc(NC(=O)c2nc(S(=O)(=O)Cc3cccc(C)c3)ncc2Cl)s1"
Result: 2690 nM

====

target.or.test.system: Perilipin-5 (Homo sapiens) + 1-acylglycerol-3-phosphate O-acyltransferase ABHD5 (Homo sapiens) (UniProt Q00G26+Q8WTS1)
assay.summary: ABHD5-PLIN5 interaction inhibitors, dose response, biochemical, luminescence (AID 651677)
Calls of active or inactive are those of the source. The rule behind the calls is not given here.
Outcomes you can answer with include only these: 1 for active, 0 for inactive

Reference set, count: 4
Problem: Tell me the assay call for "CC(=O)Oc1c(Br)cc(N(C(C)=O)S(=O)(=O)c2ccccc2)c2ccccc12" please.
Result: 1

Problem: Tell me the assay call for COc1ccc(C(C(=O)Nc2ccc3c(c2)OCCO3)n2c(=O)c(-c3ccco3)nc3ccccc32)cc1 (stereo not given) please.
Result: 1

Problem: Tell me the assay call for "c1ccc(CCC2=NCCn3cccc32)cc1" please.
Result: 0

Problem: Tell me the assay call for "Cc1ccc2nc3cc([N+](=O)[O-])cc([N+](=O)[O-])c3cc2c1" please.
Result: 1

Continue with the next molecule.
Problem: Tell me the assay call for CC(C)(C)NC(=O)C(C1CC1)n1c(=O)c(-c2ccco2)nc2ccccc21 (stereo not given) please.
Result: 1
